# Test target: LAR (Homo sapiens, UniProt P10586)
# Sequence (P10586 30-1907): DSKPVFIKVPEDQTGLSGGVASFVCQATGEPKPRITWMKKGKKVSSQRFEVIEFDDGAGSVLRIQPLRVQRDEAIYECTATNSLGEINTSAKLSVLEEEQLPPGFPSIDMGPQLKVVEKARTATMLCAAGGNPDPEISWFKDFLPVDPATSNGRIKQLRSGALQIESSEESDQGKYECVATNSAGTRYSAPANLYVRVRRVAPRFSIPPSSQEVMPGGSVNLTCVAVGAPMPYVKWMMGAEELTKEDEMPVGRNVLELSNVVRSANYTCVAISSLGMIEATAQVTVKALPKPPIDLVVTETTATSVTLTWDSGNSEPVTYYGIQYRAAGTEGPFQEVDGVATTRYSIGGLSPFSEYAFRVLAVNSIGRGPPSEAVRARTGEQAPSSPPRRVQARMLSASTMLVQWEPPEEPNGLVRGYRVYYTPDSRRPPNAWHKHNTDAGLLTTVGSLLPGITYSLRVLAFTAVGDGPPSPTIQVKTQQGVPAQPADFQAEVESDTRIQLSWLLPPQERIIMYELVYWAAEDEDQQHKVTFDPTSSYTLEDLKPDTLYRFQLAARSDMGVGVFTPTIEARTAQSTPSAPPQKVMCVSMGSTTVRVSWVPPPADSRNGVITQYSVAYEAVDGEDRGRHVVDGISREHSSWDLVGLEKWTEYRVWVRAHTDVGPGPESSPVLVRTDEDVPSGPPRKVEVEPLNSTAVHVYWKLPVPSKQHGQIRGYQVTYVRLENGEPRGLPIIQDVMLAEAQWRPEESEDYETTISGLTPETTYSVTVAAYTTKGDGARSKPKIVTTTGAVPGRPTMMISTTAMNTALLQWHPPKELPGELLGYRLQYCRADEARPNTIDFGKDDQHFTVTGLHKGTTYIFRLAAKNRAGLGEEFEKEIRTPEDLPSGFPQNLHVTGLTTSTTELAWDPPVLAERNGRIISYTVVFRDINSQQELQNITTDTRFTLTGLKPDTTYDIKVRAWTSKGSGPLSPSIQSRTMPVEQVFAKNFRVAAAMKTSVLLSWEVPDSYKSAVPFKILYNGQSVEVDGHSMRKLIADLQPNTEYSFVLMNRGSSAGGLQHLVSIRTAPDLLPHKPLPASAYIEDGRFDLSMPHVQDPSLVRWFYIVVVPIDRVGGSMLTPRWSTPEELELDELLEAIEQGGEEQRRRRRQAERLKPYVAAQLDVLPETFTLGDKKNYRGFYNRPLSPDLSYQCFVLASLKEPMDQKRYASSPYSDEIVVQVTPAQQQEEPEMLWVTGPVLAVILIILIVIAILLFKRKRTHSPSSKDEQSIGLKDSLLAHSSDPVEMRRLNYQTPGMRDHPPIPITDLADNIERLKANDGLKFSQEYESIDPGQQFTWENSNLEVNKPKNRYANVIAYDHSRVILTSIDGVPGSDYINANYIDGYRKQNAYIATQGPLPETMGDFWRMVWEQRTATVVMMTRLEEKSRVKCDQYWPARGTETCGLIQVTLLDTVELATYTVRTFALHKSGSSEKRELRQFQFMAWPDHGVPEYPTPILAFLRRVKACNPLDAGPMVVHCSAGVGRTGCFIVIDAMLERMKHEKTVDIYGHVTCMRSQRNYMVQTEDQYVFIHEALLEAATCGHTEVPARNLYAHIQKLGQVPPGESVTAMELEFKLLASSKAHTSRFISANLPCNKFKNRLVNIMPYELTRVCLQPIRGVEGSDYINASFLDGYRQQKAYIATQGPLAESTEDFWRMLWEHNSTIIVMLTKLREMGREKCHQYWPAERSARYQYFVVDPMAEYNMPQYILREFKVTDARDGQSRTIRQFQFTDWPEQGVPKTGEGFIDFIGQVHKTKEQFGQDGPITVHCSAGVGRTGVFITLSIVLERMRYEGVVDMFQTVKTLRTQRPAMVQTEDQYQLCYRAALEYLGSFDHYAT
# Protocol description: Protein phosphatase inhibition assay, LAR
pIC50: −log10 of the molar value.
Exercise: for every item that follows, state its recorded pIC50.

Sample answers from the record:
Compound | Value observed
COc1cc2ccncc2c(O)c1CC(C)C(=O)O (centres unmarked) | < 3.70
COc1cc2ccncc2c(O)c1Cc1c(OC)cc2ccncc2c1O | 4.66
COc1cc(O)c2cnccc2c1 [Compound 1, 6-methoxy-8-hydroxy-isoquinolin] | 4.00
CCC(=O)c1c(C)c(O)c(Cc2c(OC)cc3ccncc3c2O)c(O)c1O | 4.00
CCCCC(CC)COC(=O)CC[n+]1ccc2cc(OC)c(C)c(O)c2c1 (centres unmarked) | < 3.70

Each compound below has a reported value. Please supply its pIC50.
1. COc1cc2ccncc2c(O)c1C [Compound 2, 6-methoxy-7-methyl-8-hydroxy-isoquinolin]
2. COc1cc2ccncc2c(O)c1Cc1c(O)cc(O)c2c1[C@@H](C)OC2
3. COc1cc2ccncc2c(O)c1Cc1c(O)c(OC)c2c(c1O)C(=O)O[C@H]2[C@@H](C)O

*A*
1: < 3.70; 2: < 3.70; 3: < 3.70

* * *

# Test target: SHP1 (Homo sapiens, UniProt P29350)
# Sequence (P29350 whole entry): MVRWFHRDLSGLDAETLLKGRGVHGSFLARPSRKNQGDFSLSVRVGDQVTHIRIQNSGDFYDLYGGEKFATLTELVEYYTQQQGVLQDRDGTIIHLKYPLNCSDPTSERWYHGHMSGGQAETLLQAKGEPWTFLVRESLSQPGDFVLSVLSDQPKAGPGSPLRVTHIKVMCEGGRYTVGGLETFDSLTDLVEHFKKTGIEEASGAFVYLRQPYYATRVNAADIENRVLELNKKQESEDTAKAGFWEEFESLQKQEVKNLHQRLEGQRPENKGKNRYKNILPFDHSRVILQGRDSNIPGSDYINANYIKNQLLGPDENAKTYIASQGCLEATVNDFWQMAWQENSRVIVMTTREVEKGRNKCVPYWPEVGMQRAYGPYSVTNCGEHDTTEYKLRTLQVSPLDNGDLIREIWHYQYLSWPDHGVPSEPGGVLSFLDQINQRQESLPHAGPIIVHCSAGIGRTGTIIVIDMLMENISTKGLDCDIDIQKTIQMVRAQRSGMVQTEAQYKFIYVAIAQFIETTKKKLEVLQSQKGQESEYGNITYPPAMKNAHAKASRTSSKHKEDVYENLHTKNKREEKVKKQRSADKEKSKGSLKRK
# Protocol description: Protein phosphatase inhibition assay, SHP1
Test readout: IC50 (µM)
Answers are plain numbers, in µM.

List the reported IC50 of each molecule below.
1. CCc1oc(=O)c(Cc2c(OC)cc3ccncc3c2O)c(O)c1C
2. COc1cc2ccncc2c(O)c1Cc1c(O)cc(O)c2c1[C@@H](C)OC2
3. COc1cc2ccncc2c(O)c1CC(C)C(=O)O (centres unmarked)
4. CCc1cc(O)c(Cc2c(OC)cc3ccncc3c2O)c(=O)o1
5. COc1cc2ccncc2c(O)c1Cc1c(OC)cc2ccncc2c1O
6. COc1cc2ccncc2c(O)c1Cc1c(OC)c(C)c(O)c2cnccc12

*A*
[40.3, 41.8, 200, 117, 20.7, 145]
